- System: HOP-18 NSCLC
- ASSAY_OVERVIEW: NCI tumour cell line growth inhibition, 48 h

# COMPOUND, ASSAY_TARGET, TGI
measured = [
    ("c1ccc2c(c1)oc1ccc3nsnc3c12", "HOP-18 NSCLC", "> 100 µM"),
    ("CC(C)=CCC(OC(=O)C=C(C)C)C1=CC(=O)c2c(O)ccc(O)c2C1=O (centres undefined)", "HOP-18 NSCLC", "7.58 µM"),
    ("COc1ccc(CCc2cc(OC)cc(OC)c2)cc1", "HOP-18 NSCLC", "> 100 µM"),
    ("C[Si](C)(C)/C=C\\CCO", "HOP-18 NSCLC", "> 100 µM"),
    ("O=C1C=CC(=O)c2c(O)c(NCCOCCO)c(Cl)c(O)c21", "HOP-18 NSCLC", "29.1 µM"),
    ("O=C1CC(c2[nH]nc3ccccc23)C(=O)N1c1ccccc1 (centres undefined)", "HOP-18 NSCLC", "> 100 µM"),
    ("COC(=O)c1c2c(cc3c1CC1(Cc4cc5c(c(C(C)=O)c4C1)CCC5)C3)CCC2 (centres undefined)", "HOP-18 NSCLC", "> 100 µM"),
    ("O=S(=O)(NCn1ccc2ccccc21)c1ccccc1", "HOP-18 NSCLC", "> 100 µM"),
    ("Cc1cc(N(CCC#N)CCC#N)ccc1N=Nc1ccc(Br)cc1", "HOP-18 NSCLC", "> 100 µM"),
]

----------
- System: SF-295 CNS
- ASSAY_OVERVIEW: NCI tumour cell line growth inhibition, 48 h
Where a SMILES comes first, the peptide text is derived from it. [ ]: non-standard residue; d: D form. The star is where a group is joined. Bn2Val = CC(C)[C@@H](C(=O)*)N(Cc1ccccc1)Cc1ccccc1; NH(4-Cl-benzyl) = Clc1ccc(CN*)cc1; NMeV = CN[C@H](C(=O)O)C(C)C; dNMeA = CN[C@H](C)C(=O)O
QUANTITY_MEASURED: TGI (µM)

# COMPOUND, ASSAY_TARGET, QUANTITY_MEASURED, UNIT_ABBREVIATION, OP, MEASURED
records = [
    ("CN1CC2=C(NC(=S)NC2c2ccccc2)/C(=C/c2ccccc2)C1 (stereo unspecified)", "SF-295 CNS", "TGI", "µM", ">", 100),
    ("CCCC(=O)N[C@H]1C2C3CC4C5CC(C42)C1(C)C53 (stereo partly specified)", "SF-295 CNS", "TGI", "µM", ">", 100),
    ("C=CC[n+]1c2ccccc2n2cc([N+](=O)[O-])ccc21", "SF-295 CNS", "TGI", "µM", ">", 100),
    ("CCOC(=O)c1cc(C)nc2c1c(=O)n(-c1ccccc1)c(=O)n2CCCCN1CCN(c2ccccc2)CC1", "SF-295 CNS", "TGI", "µM", ">", 100),
    ("O=C(NCCc1ccccn1)OCc1nc2nc(Cl)nc(N3CCOCC3)c2[nH]1", "SF-295 CNS", "TGI", "µM", "=", 17.4),
    ("CCOC(=O)CCn1ncc(Cl)c(Cl)c1=O", "SF-295 CNS", "TGI", "µM", "=", 34.2),
    ("O=C(Cc1ccc(Cl)c(Cl)c1)NCC1(N2CCCCC2)CCCCC1", "SF-295 CNS", "TGI", "µM", ">", 100),
    ("NN=C(CC(O)(C(F)(F)Cl)C(F)(F)Cl)CC(O)(C(F)(F)Cl)C(F)(F)Cl", "SF-295 CNS", "TGI", "µM", ">", 10),
    ("CC(C)[C@H](NC(=O)[C@H](C(C)C)N(Cc1ccccc1)Cc1ccccc1)C(=O)N(C)[C@H](C(=O)N1CCC[C@H]1C(=O)N(C)[C@H](C)C(=O)NCc1ccc(Cl)cc1)C(C)C (Bn2Val-V[NMeV]P[dNMeA]-{NH(4-Cl-benzyl)})", "SF-295 CNS", "TGI", "µM", "=", 11.1),
    ("COc1ccc(C(=O)CC(c2ccccc2)[C@H]2C(c3ccc(OC)cc3)=Nc3c(nc(SC)n(C)c3=O)NC2c2ccccc2)cc1 (stereo partly specified)", "SF-295 CNS", "TGI", "µM", ">", 100),
    ("Cc1ccc(S(=O)(=O)Nn2c(O)c(C#N)c(-c3ccc(Cl)cc3)c(C#N)c2=O)cc1", "SF-295 CNS", "TGI", "µM", ">", 100),
    ("Nc1ccc(S(=O)(=O)Nc2nc3ccccc3nc2N2CCCCCC2)cc1", "SF-295 CNS", "TGI", "µM", "=", 57.3),
    ("COc1cnc2c(c1)C(=O)c1c-2n(CCCNCCO)c(=O)c2ccncc12", "SF-295 CNS", "TGI", "µM", "=", 7.89),
    ("O=[N+]([O-])c1cccc(N=Nc2c(O)c(S(=O)(=O)O)cc3cc(S(=O)(=O)O)ccc23)c1", "SF-295 CNS", "TGI", "µM", ">", 100),
    ("C[Si](C)(C)/C=C\\CCO", "SF-295 CNS", "TGI", "µM", ">", 100),
    ("NCC(O)CSCc1ccc(Cl)cc1 (stereo unspecified)", "SF-295 CNS", "TGI", "µM", ">", 100),
    ("COC[C@@H](N=Cc1ccc([N+](=O)[O-])cc1)C(C)C", "SF-295 CNS", "TGI", "µM", ">", 100),
    ("CC(=O)Nc1ccc(OC/C(N)=N/NC(=O)c2ccncc2)cc1", "SF-295 CNS", "TGI", "µM", ">", 100),
    ("C/C(=N\\Nc1nc2cc(C(F)(F)F)ccc2s1)c1ccccn1", "SF-295 CNS", "TGI", "µM", "=", 5.19),
    ("CC(C)(C)n1c(=O)[nH]c(=O)n1C(C)(C)C", "SF-295 CNS", "TGI", "µM", ">", 100),
    ("Cc1nn(-c2ccccc2)c(C)c1/C=N/N=C1\\S/C(=C\\c2ccc(Cl)cc2)C(=O)N1c1ccccc1", "SF-295 CNS", "TGI", "µM", ">", 100),
    ("CC(C)(C)OC(=O)NCCCn1c2c(c3ccccc3c1=O)C(=O)c1ccccc1-2", "SF-295 CNS", "TGI", "µM", "=", 44.6),
    ("C=C=C(CC(CC(=C)Br)(C(=O)OC)C(=O)OC)S(=O)(=O)c1ccccc1", "SF-295 CNS", "TGI", "µM", "=", 26.9),
    ("CN(C)CCCNc1ccc2nnn3c4ccc(O)cc4c(=O)c1c23", "SF-295 CNS", "TGI", "µM", "=", 18.7),
    ("CC1=Cc2ccc(C)cc2C(=O)C1=O", "SF-295 CNS", "TGI", "µM", "=", 34.7),
    ("COc1ccc(C(=O)C(CC2C(=O)NC(=O)NC2=O)c2ccc(OC)cc2)cc1 (stereo unspecified)", "SF-295 CNS", "TGI", "µM", ">", 100),
    ("O=c1[nH]n(Cc2ccccc2)c2ccc([N+](=O)[O-])cc12", "SF-295 CNS", "TGI", "µM", ">", 100),
    ("CC(Oc1ccccc1Cl)C(=O)NN1C(=O)CSC1c1ccccc1 (stereo unspecified)", "SF-295 CNS", "TGI", "µM", ">", 100),
    ("COc1cc2cc(C(=O)N3CC(COS(C)(=O)=O)c4ccc(O)cc43)[nH]c2c(OC)c1OC (stereo unspecified)", "SF-295 CNS", "TGI", "µM", "<", 0.0001),
    ("Cc1ccc(S(=O)(=O)c2ccccc2[N+](=O)[O-])cc1", "SF-295 CNS", "TGI", "µM", ">", 100),
    ("CCCCCC[C@H](C)Nc1nc2ccccc2c2occc12", "SF-295 CNS", "TGI", "µM", "=", 25.5),
    ("Cc1nc(Nc2cccnc2)sc1C(=O)/C=C/c1ccc(Cl)cc1", "SF-295 CNS", "TGI", "µM", "=", 19.1),
    ("NCCOCCOCCNc1nc(-c2ccc(Cl)cc2)nc(N2CCN(c3ccccn3)CC2)n1", "SF-295 CNS", "TGI", "µM", "=", 6.46),
    ("NCc1cccc(O)c1O", "SF-295 CNS", "TGI", "µM", ">", 100),
    ("CN(C)CCn1c(CO)nc2c1c(=O)n(C)c(=O)n2C", "SF-295 CNS", "TGI", "µM", ">", 100),
    ("COc1cccc(N[C@@H]2c3cc4c(cc3C(c3cc(OC)c(O)c(OC)c3)[C@H]3C(=O)OCC32)OCO4)c1 (stereo partly specified)", "SF-295 CNS", "TGI", "µM", "=", 2.5),
    ("NNC(=O)C1(NC(=O)c2ccccc2)C(c2ccccc2)C(c2ccccc2)=NN1c1ccccc1 (stereo unspecified)", "SF-295 CNS", "TGI", "µM", ">", 100),
    ("CCCCCCCCNCCC[C@@H](C)[C@H]1CC[C@H]2[C@@H]3[C@H](OCCCN)C[C@H]4C[C@H](OCCCN)CC[C@]4(C)[C@H]3C[C@H](OCCCN)[C@]12C", "SF-295 CNS", "TGI", "µM", "=", 4.43),
    ("COc1cc(C2C(Cl)C(=O)N2c2c(C)n(C)n(-c3ccccc3)c2=O)ccc1O (stereo unspecified)", "SF-295 CNS", "TGI", "µM", "=", 50),
    ("COc1cc(C)c(C2NC(=O)c3ccccc3N2)cc1C (stereo unspecified)", "SF-295 CNS", "TGI", "µM", "=", 22.4),
    ("CC1(C)CC2(CC(C)(C)N1O)NC(=O)OC2=O", "SF-295 CNS", "TGI", "µM", ">", 100),
]
